System: rat liver mitochondria (RLM)
test.description: Mitochondrial transmembrane electric potential (safranine fluorescence)
Assay type: biochemical
measurement.parameters: Succinate, 5 μM
measure.name: Lag Phase

1) COC1=C(OC)C(=O)C(CCCCCCCCCC[P+](c2ccccc2)(c2ccccc2)c2ccccc2)=C(C)C1=O.CS(=O)(=O)[O-] [MitoQ, reference compound]    92.6 ± 19.4 s
2) O=C(NCCCCCC[P+](c1ccccc1)(c1ccccc1)c1ccccc1)c1ccc(O)c(O)c1.[Br-] [AntiOxBEN1]    93.6 ± 29.2 s
3) O=C(CCCCC[P+](c1ccccc1)(c1ccccc1)c1ccccc1)NCCCCCCNC(=O)c1cc(O)c(O)c(O)c1.[Br-] [AntiOxBEN3]    119.8 ± 32.2 s
4) O=C(NCCCCCC[P+](c1ccccc1)(c1ccccc1)c1ccccc1)c1cc(O)c(O)c(O)c1.[Br-] [AntiOxBEN2]    118.0 ± 26.4 s

----------
Attribute: ADP-induced depolarization (ΔΨ in - mV)
System: rat liver mitochondria (RLM)
test.description: Mitochondrial transmembrane electric potential (safranine fluorescence)
Assay type: biochemical
measurement.parameters: Glutamate/Malate, 2.5 μM
measure.name: ADP-induced depolarization (ΔΨ in - mV)

1) O=C(NCCCCCC[P+](c1ccccc1)(c1ccccc1)c1ccccc1)c1ccc(O)c(O)c1.[Br-] [AntiOxBEN1]    199.5 ± 16.6 - mV
2) O=C(CCCCC[P+](c1ccccc1)(c1ccccc1)c1ccccc1)NCCCCCCNC(=O)c1cc(O)c(O)c(O)c1.[Br-] [AntiOxBEN3]    202.9 ± 18.7 - mV
3) COC1=C(OC)C(=O)C(CCCCCCCCCC[P+](c2ccccc2)(c2ccccc2)c2ccccc2)=C(C)C1=O.CS(=O)(=O)[O-] [MitoQ, reference compound]    173.0 ± 9.4 - mV
4) O=C(NCCCCCC[P+](c1ccccc1)(c1ccccc1)c1ccccc1)c1cc(O)c(O)c(O)c1.[Br-] [AntiOxBEN2]    200.5 ± 17.5 - mV

----------
Tested on: rat liver mitochondria (RLM)
test.description: Mitochondrial transmembrane electric potential (safranine fluorescence)
Assay type: biochemical
measurement.parameters: Succinate, 5 μM
Reported Repolarization Potential (ΔΨ in - mV) by item:
measure.name: Repolarization Potential (ΔΨ in - mV)

1. O=C(CCCCC[P+](c1ccccc1)(c1ccccc1)c1ccccc1)NCCCCCCNC(=O)c1cc(O)c(O)c(O)c1.[Br-] [AntiOxBEN3]    199.1 ± 19.2 - mV
2. O=C(NCCCCCC[P+](c1ccccc1)(c1ccccc1)c1ccccc1)c1cc(O)c(O)c(O)c1.[Br-] [AntiOxBEN2]    200.4 ± 17.0 - mV
3. COC1=C(OC)C(=O)C(CCCCCCCCCC[P+](c2ccccc2)(c2ccccc2)c2ccccc2)=C(C)C1=O.CS(=O)(=O)[O-] [MitoQ, reference compound]    170.7 ± 8.7 - mV
4. O=C(NCCCCCC[P+](c1ccccc1)(c1ccccc1)c1ccccc1)c1ccc(O)c(O)c1.[Br-] [AntiOxBEN1]    181.0 ± 13.5 - mV

----------
System: rat liver mitochondria (RLM)
test.description: Mitochondrial transmembrane electric potential (safranine fluorescence)
Type: biochemical
measurement.parameters: Succinate, 5 μM
measure.name: ADP-induced depolarization (ΔΨ in - mV)

1. COC1=C(OC)C(=O)C(CCCCCCCCCC[P+](c2ccccc2)(c2ccccc2)c2ccccc2)=C(C)C1=O.CS(=O)(=O)[O-] [MitoQ, reference compound]    157.1 ± 6.4 - mV
2. O=C(NCCCCCC[P+](c1ccccc1)(c1ccccc1)c1ccccc1)c1ccc(O)c(O)c1.[Br-] [AntiOxBEN1]    175.4 ± 12.9 - mV
3. O=C(CCCCC[P+](c1ccccc1)(c1ccccc1)c1ccccc1)NCCCCCCNC(=O)c1cc(O)c(O)c(O)c1.[Br-] [AntiOxBEN3]    191.1 ± 20.0 - mV
4. O=C(NCCCCCC[P+](c1ccccc1)(c1ccccc1)c1ccccc1)c1cc(O)c(O)c(O)c1.[Br-] [AntiOxBEN2]    191.2 ± 17.8 - mV
